Biological target: purified human MAP4K4 kinase domain (Homo sapiens)
Construct: purified human MAP4K4 kinase domain
Sequence (O95819 25-289 limits assumed): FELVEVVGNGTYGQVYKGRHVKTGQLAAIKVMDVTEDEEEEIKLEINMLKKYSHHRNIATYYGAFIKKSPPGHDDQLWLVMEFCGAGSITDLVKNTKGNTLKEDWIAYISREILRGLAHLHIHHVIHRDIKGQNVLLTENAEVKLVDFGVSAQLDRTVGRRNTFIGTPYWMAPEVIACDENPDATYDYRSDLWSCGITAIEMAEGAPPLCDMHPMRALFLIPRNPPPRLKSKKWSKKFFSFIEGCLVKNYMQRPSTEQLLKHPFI
Assay: MAP4K4 Inhibition Assay Protocol No. 1 (Caliper LabChip, moesin-derived peptide phosphorylation)
Assay type: biochemical
Details: Assay 1; 1 nM enzyme, 10 uM ATP, 45 min
property.label: IC50 (µM)

See these solved cases before continuing.
>  <line.notation>
CN1CCC(NC(=O)c2cnc(N)c3cc(-c4cccc(F)c4)ccc23)CC1

>  <test.result>
0.651

$$$$
>  <line.notation>
NC(=O)CNC(=O)c1cnc(N)c2cc(-c3cccc(F)c3)ccc12

>  <test.result>
0.115

$$$$
>  <line.notation>
Nc1ncc(C(=O)NCCN2CCOCC2)c2ccc(-c3cccc(F)c3)cc12

>  <test.result>
0.0841

$$$$
>  <line.notation>
Cc1cnc(CNC(=O)c2cnc(N)c3cc(-c4cccc(F)c4)ccc23)cn1

>  <test.result>
0.0909

$$$$

[P] Nc1ncc(C(=O)NC2CCC2)c2ccc(-c3cccc(F)c3)cc12
[Q] COc1cccc(CNC(=O)c2cnc(N)c3cc(-c4cccc(F)c4)ccc23)c1
Lowest IC50? choose P or Q Answer by quoting the chosen item's label.
P
(P: 0.03 µM, Q: 0.0511 µM)
